Recorded isotherm data point (enthalpy change per injection) values for a group of compounds are listed next.
Experimental Target: UCP1 (Homo sapiens)
Construct: His8 (N, cleaved yes); Factor Xa protease cleavage site (N, cleaved yes); made in house; host or cells: Saccharomyces cerevisiae strain W303.1B
Assay Summary: Isothermal titration calorimetry of nucleotide binding
Set-up: unit not given here
Run Parameters: Molar ratio (Nucleotide/UCP) 1.55577; representative isotherm, pH 6.0, 20 °C
Just the number, please, no unit attached.

Consider the worked cases shown below.
Cc1cn([C@H]2C[C@H](O)[C@@H](COP(=O)(O)OP(=O)(O)OP(=O)(O)O)O2)c(=O)[nH]c1=O [dTTP, thymidine triphosphate] = 0.501
O=c1ccn([C@@H]2O[C@H](CO[P@@](=O)(O)O[P@@](=O)(O)OP(=O)(O)O)[C@@H](O)[C@H]2O)c(=O)[nH]1 (stereo in doubt) [UTP, uridine triphosphate] = -0.1953

q: I'd like to know its isotherm data point (enthalpy change per injection). The compound in question is Nc1ccn(C2OC(COP(=O)(O)OP(=O)(O)OP(=O)(O)O)C(O)C2O)c(=O)n1 (stereo not shown)
a: -0.8262

q: Query: isotherm data point (enthalpy change per injection); subject: Nc1nc2c(ncn2[C@@H]2O[C@H](COP(=O)(O)OP(=O)(O)OP(=O)(O)O)[C@@H](O)[C@H]2O)c(=O)[nH]1 [GTP, guanosine triphosphate]
a: -1.473

----------
Experimental Target: UCP1 (Homo sapiens, UniProt P25874)
Construct: His8 (N, cleaved yes); Factor Xa protease cleavage site (N, cleaved yes); made in house; host or cells: Saccharomyces cerevisiae strain W303.1B
Sequence (P25874 1-307): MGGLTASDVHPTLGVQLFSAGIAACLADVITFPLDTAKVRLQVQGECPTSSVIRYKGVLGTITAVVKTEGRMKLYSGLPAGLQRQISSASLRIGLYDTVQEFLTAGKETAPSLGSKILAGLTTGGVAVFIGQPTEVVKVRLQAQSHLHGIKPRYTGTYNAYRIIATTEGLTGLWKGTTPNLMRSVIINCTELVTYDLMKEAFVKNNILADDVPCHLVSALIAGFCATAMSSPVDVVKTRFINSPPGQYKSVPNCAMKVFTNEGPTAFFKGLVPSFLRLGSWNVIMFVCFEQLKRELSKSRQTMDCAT
Assay Summary: Isothermal titration calorimetry of nucleotide binding
Set-up: unit not given here
Run Parameters: Molar ratio (Nucleotide/UCP) 0.181226; representative isotherm, pH 6.0, 20 °C
Measure: isotherm data point (enthalpy change per injection)

Reference set, count: 2
Nc1ccn(C2OC(COP(=O)(O)OP(=O)(O)OP(=O)(O)O)C(O)C2O)c(=O)n1 (stereo not shown) = -21.186
Cc1cn([C@H]2C[C@H](O)[C@@H](COP(=O)(O)OP(=O)(O)OP(=O)(O)O)O2)c(=O)[nH]c1=O [dTTP, thymidine triphosphate] = -22.1545

q: Find the recorded isotherm data point (enthalpy change per injection) belonging to O=c1ccn([C@@H]2O[C@H](CO[P@@](=O)(O)O[P@@](=O)(O)OP(=O)(O)O)[C@@H](O)[C@H]2O)c(=O)[nH]1 (stereo in doubt) [UTP, uridine triphosphate] and report it.
a: -22.8003

q: Fill in: isotherm data point (enthalpy change per injection) of Nc1nc2c(ncn2[C@@H]2O[C@H](COP(=O)(O)OP(=O)(O)OP(=O)(O)O)[C@@H](O)[C@H]2O)c(=O)[nH]1 [GTP, guanosine triphosphate] is ___
a: -19.4276

----------
Experimental Target: UCP1 (Homo sapiens, UniProt P25874)
Construct: His8 (N, cleaved yes); Factor Xa protease cleavage site (N, cleaved yes); made in house; host or cells: Saccharomyces cerevisiae strain W303.1B
Sequence (P25874 1-307): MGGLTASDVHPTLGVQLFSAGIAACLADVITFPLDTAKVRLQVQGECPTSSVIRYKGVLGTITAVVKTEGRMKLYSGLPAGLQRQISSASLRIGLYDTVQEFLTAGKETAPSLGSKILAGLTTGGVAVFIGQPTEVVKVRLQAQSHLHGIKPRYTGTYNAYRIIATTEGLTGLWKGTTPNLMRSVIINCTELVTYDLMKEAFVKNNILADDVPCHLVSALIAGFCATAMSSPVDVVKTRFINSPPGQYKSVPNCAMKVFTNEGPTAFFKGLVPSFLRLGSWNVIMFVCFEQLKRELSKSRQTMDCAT
Assay Summary: Isothermal titration calorimetry of nucleotide binding
Run Parameters: ITC, pH 6.0, 20 °C; mean ± standard deviation of three biological repeats (Fig. 2A-E)
Response field label: string, one of Y (Kd strictly below 3 µM) or N.

q: Hello, is Kd of the following compound strictly smaller than 3 µM? Nc1ncnc2c1ncn2[C@@H]1O[C@H](COP(=O)(O)OP(=O)(O)OP(=O)(O)O)[C@@H](O)[C@H]1O [ATP, adenosine triphosphate]
a: Y

q: Field: below-cutoff. Rule: recorded Kd strictly less than 3 µM. Subject: Nc1ccn(C2OC(COP(=O)(O)OP(=O)(O)OP(=O)(O)O)C(O)C2O)c(=O)n1 (centres unmarked)
a: N

q: I'd appreciate it if you could check whether Cc1cn([C@H]2C[C@H](O)[C@@H](COP(=O)(O)OP(=O)(O)OP(=O)(O)O)O2)c(=O)[nH]c1=O [dTTP, thymidine triphosphate] has Kd smaller than 3 µM.
a: Y

q: is_below(Kd, 3 µM) for Nc1nc2c(ncn2[C@@H]2O[C@H](COP(=O)(O)OP(=O)(O)OP(=O)(O)O)[C@@H](O)[C@H]2O)c(=O)[nH]1 [GTP, guanosine triphosphate] ?
a: N

q: API: query returns whether the compound falls strictly under 3 µM in Kd. Query: O=c1ccn([C@@H]2O[C@H](COP(=O)(O)OP(=O)(O)OP(=O)(O)O)[C@@H](O)[C@H]2O)c(=O)[nH]1 [UTP, uridine triphosphate]
a: Y

----------
Experimental Target: UCP1 (Homo sapiens)
Construct: His8 (N, cleaved yes); Factor Xa protease cleavage site (N, cleaved yes); made in house; host or cells: Saccharomyces cerevisiae strain W303.1B
Assay Summary: Isothermal titration calorimetry of nucleotide binding
Design: unit not given here
Run Parameters: Molar ratio (Nucleotide/UCP) 0.428528; representative isotherm, pH 6.0, 20 °C
Returns fulfilled if the recorded isotherm data point (enthalpy change per injection) is greater than or equal to -20, and not fulfilled otherwise.

These recorded examples may help you get a feel for the data.
Cc1cn([C@H]2C[C@H](O)[C@@H](COP(=O)(O)OP(=O)(O)OP(=O)(O)O)O2)c(=O)[nH]c1=O [dTTP, thymidine triphosphate] = not fulfilled
Nc1ccn(C2OC(COP(=O)(O)OP(=O)(O)OP(=O)(O)O)C(O)C2O)c(=O)n1 (centres unmarked) = fulfilled
Nc1nc2c(ncn2[C@@H]2O[C@H](COP(=O)(O)OP(=O)(O)OP(=O)(O)O)[C@@H](O)[C@H]2O)c(=O)[nH]1 [GTP, guanosine triphosphate] = fulfilled

q: Would you say Nc1ncnc2c1ncn2[C@@H]1O[C@H](COP(=O)(O)OP(=O)(O)OP(=O)(O)O)[C@@H](O)[C@H]1O [ATP, adenosine triphosphate] shows isotherm data point (enthalpy change per injection) at minimum -20?
a: not fulfilled

----------
Experimental Target: UCP1 (Homo sapiens, UniProt P25874)
Construct: His8 (N, cleaved yes); Factor Xa protease cleavage site (N, cleaved yes); made in house; host or cells: Saccharomyces cerevisiae strain W303.1B
Assay Summary: Isothermal titration calorimetry of nucleotide binding
Set-up: unit not given here
Run Parameters: Molar ratio (Nucleotide/UCP) 1.0762; representative isotherm, pH 6.0, 20 °C
Measure: isotherm data point (enthalpy change per injection)
# answer = number (no unit)

Solved entries:
O=c1ccn([C@@H]2O[C@H](CO[P@@](=O)(O)O[P@@](=O)(O)OP(=O)(O)O)[C@@H](O)[C@H]2O)c(=O)[nH]1 (stereo in doubt) [UTP, uridine triphosphate] = -5.447
Nc1nc2c(ncn2[C@@H]2O[C@H](COP(=O)(O)OP(=O)(O)OP(=O)(O)O)[C@@H](O)[C@H]2O)c(=O)[nH]1 [GTP, guanosine triphosphate] = -6.878
Cc1cn([C@H]2C[C@H](O)[C@@H](COP(=O)(O)OP(=O)(O)OP(=O)(O)O)O2)c(=O)[nH]c1=O [dTTP, thymidine triphosphate] = -6.9461
Nc1ncnc2c1ncn2[C@@H]1O[C@H](COP(=O)(O)OP(=O)(O)OP(=O)(O)O)[C@@H](O)[C@H]1O [ATP, adenosine triphosphate] = -7.301

Note: attention shifts to another entry.
q: Could you share which isotherm data point (enthalpy change per injection) value was measured for Nc1ccn(C2OC(COP(=O)(O)OP(=O)(O)OP(=O)(O)O)C(O)C2O)c(=O)n1 (centres unmarked) ?
a: -6.038

----------
isotherm data point (enthalpy change per injection) values for the molecules below.
Experimental Target: UCP1 (Homo sapiens, UniProt P25874)
Construct: His8 (N, cleaved yes); Factor Xa protease cleavage site (N, cleaved yes); made in house; host or cells: Saccharomyces cerevisiae strain W303.1B
Assay Summary: Isothermal titration calorimetry of nucleotide binding;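 further: purified human UCP1 in cacodylate buffer with lauryl maltose neopentyl glycol and cardiolipin, titrated with nucleotides, isotherms fitted by one-site model yielding ΔH, Kd and stoichiometry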
Set-up: unit not given here
Run Parameters: Molar ratio (Nucleotide/UCP) 0.877378; representative isotherm, pH 6.0, 20 °C
Write the number on its own, no unit after it.

q: If you can, please state the reported isotherm data point (enthalpy change per injection) value of Nc1ncnc2c1ncn2[C@@H]1O[C@H](COP(=O)(O)OP(=O)(O)OP(=O)(O)O)[C@@H](O)[C@H]1O [ATP, adenosine triphosphate] .
a: -22.2535
